Taken from patent US20260015358A1.

target: UniProt:Q14191; experiment: WRN unwinding assay (FORKF DNA, fluorescence); format: biochemical; conditions: Table 14
Sequence (Q14191 500-946): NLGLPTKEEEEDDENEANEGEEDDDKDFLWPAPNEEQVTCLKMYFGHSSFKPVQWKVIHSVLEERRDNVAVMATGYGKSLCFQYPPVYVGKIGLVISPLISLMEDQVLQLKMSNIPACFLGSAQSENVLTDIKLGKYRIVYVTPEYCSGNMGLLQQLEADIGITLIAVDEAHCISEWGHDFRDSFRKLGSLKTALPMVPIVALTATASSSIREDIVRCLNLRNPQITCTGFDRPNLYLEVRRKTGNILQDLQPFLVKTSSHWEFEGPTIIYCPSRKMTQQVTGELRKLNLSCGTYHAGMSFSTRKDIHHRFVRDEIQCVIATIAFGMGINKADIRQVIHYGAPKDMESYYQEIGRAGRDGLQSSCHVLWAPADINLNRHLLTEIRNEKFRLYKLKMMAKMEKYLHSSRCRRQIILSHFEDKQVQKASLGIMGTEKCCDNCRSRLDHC
pIC50: −log10 of the molar value.
PROPERTY_MEASURED: pIC50

1) CCc1c(N2CCN(C(=O)C(=O)Nc3cc(C)[nH]n3)CC2)c(=O)n2nc(C3=CCOCC3)nc2n1CC(=O)Nc1ccc(C(F)(F)F)cc1Cl [Example 331] | > 7.00
2) CCc1c(N2CCN(C(=O)c3ncnc4[nH]ccc34)CC2)c(=O)n2nc(C3=CCOCC3)nc2n1CC(=O)Nc1ccc(Cl)cc1C(F)(F)F [Example 69] | > 7.00
3) CCc1c(N2CCN(C(=O)CNC(=O)c3cc(N(C)C)ccc3F)CC2)c(=O)n2nc(C3=CCOCC3)nc2n1CC(=O)Nc1ccc(C(F)(F)F)cc1F [Example 224] | 6.00 to 7.00
4) CCc1c(N2CCN(/C(=N\O)c3ncccc3F)CC2)c(=O)n2nc(C3=CCOCC3)nc2n1CC(=O)Nc1ccc(C(F)(F)F)cc1Cl [Example 21] | < 6.00
5) CCc1c(N2CCN(C(=O)CNC(=O)Nc3ccccc3C#N)CC2)c(=O)n2nc(C3=CCOCC3)nc2n1CC(=O)Nc1ccc(C(F)(F)F)cc1Cl [Example 187] | > 7.00
6) CCc1c(N2CCN(C(=O)CNC(=O)c3[nH]c(=O)ccc3F)CC2)c(=O)n2nc(C3=CCOCC3)nc2n1CC(=O)Nc1ccc(C(F)(F)F)cc1Cl [Example 365] | > 7.00
7) CCc1c(N2CCN(C(=O)c3cccc4cn[nH]c34)CC2)c(=O)n2nc(C3=CCOCC3)nc2n1CC(=O)Nc1ccc(C(F)(F)F)cc1Cl [Example 90] | 6.00 to 7.00
8) CCc1c(N2CCN(C(=O)c3cnn4ccc(C)c4c3O)CC2)c(=O)n2nc(C3=CCOCC3)nc2n1CC(=O)Nc1ccc(C(F)(F)F)cc1Cl [Example 303] | > 7.00
9) CCc1c(N2CCN(C(=O)CNC(=O)c3ccno3)CC2)c(=O)n2nc(C3=CCOCC3)nc2n1CC(=O)Nc1ccc(C(F)(F)F)cc1Cl [Example 370] | > 7.00
10) CCNc1ccc(F)c(C(=O)NCC(=O)N2CCN(c3c(CC)n(CC(=O)Nc4ccc(C(F)(F)F)cc4Cl)c4nc(C5=CCOCC5)nn4c3=O)CC2)c1 [Example 374] | > 7.00
11) CCc1c(N2CCN(C(=O)CNC(=O)c3ccc(Cl)cc3Cl)CC2)c(=O)n2nc(C3=CCOCC3)nc2n1CC(=O)Nc1ccc(C(F)(F)F)cc1Cl [Example 127] | 6.00 to 7.00
12) CCc1c(N2CCN(C(=O)CNc3ncnc4cccnc34)CC2)c(=O)n2nc(C3=CCOCC3)nc2n1CC(=O)Nc1ccc(C(F)(F)F)cc1Cl [Example 362] | > 7.00
